Give measured TGI for each item. Keep answers brief.
Tested on: UACC-257 melanoma
method description: NCI tumour cell line growth inhibition, 384-well format
Answer with a number only, understood to be in µM.

Ask | Quick one: TGI of CCS(=O)(=O)Nc1ccc(Oc2ccc(F)cc2F)c(-c2cn(C)c(=O)c3[nH]ccc23)c1 ?
Reply | 1.89

Ask | Quick one: TGI of COc1c(C)cnc(Cn2cnc3c(Cl)nc(N)nc32)c1C ?
Reply | 34.6

Ask | Quick one: TGI of CNCc1ccc(C)c(NC(=O)c2ccc(Nc3nc(-c4ccccc4)c4ccccc4n3)cc2)c1 ?
Reply | 1.6
